test system: Pyricularia oryzae; assay: Growth inhibition of Magnaporthe oryzae at 50 ug/ml after 4 days by poisoned food technique; assay type: functional; conditions: 96 h, read-out: GI
inhibition of growth at 50 µg/mL reference
Respond numerically; units are % and should not be typed.

Past entries and their recorded results:
| COMPOUND | inhibition of growth at 50 µg/mL, % |
| --- | --- |
| O=[N+]([O-])c1ccc(Oc2ccccc2[N+](=O)[O-])cc1 [2,4'-OXYBIS(NITROBENZENE)] | 31.4 |
| O=[N+]([O-])c1ccc(Oc2ccc(Cl)cc2)cc1 | 47.6 |
| N#Cc1ccccc1Oc1ccc(Cl)cc1 | 59.7 |

Let's switch to this compound now.
GET /value?item= O=[N+]([O-])c1ccccc1Oc1ccccc1Cl &field=inhibition of growth at 50 µg/mL returns 51
